From: patent US20140072563A1

Would you kindly list Maximal Blocking (%) for each of these binders?
Target Or Test System: T1, ErbB3-mFc (human)
T1 construct: Dimeric soluble ErbB3; also called hErbB3.mFc
T1 chain: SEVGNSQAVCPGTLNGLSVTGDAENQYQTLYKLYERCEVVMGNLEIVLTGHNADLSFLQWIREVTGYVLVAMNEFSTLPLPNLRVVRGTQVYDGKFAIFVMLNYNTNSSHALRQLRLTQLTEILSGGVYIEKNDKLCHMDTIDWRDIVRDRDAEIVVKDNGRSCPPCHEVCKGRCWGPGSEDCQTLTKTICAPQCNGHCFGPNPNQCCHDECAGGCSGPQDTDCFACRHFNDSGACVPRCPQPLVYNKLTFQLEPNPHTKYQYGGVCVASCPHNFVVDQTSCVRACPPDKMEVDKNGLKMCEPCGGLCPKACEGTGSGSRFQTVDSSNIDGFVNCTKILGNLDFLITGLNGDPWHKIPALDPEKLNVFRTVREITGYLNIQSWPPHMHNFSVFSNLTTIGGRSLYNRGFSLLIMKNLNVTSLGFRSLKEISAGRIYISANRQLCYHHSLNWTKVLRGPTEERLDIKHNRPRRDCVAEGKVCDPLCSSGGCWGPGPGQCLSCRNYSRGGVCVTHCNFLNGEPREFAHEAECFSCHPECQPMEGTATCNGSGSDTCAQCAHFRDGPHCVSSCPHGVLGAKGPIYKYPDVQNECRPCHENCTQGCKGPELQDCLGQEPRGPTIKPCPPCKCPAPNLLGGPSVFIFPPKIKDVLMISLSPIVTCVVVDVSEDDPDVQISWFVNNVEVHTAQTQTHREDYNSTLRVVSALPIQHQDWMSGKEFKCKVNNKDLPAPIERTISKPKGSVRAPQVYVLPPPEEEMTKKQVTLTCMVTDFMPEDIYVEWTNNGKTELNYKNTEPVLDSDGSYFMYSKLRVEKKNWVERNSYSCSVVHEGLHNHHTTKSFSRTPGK
Assay Summary: blocking ELISA: antibody (0-50 nM) + 50 pM ErbB3-mFc, binding to coated neuregulin1b
Give a bare numeral; the unit % is implied.

Report Maximal Blocking (%), nothing else, for this binder: H4H2154P (antibody, human IgG4, V domains shown, Human IgG4 Fc (prefix H4H)) VH: QVQLQESGPGLINPSQTLSVTCTVSGGSISSGGYYWTWIRQHPGKGLEWIGYISYSGNTNYNPSLKSRVTISVDTAKNQFSLKLSSVTAADTAVYFCARDSDVDTAMVDGIDIWGQGTMVTVSS VL: DIQMTQSPSSVSASVGDRVTITCRASQDISSWLAWYQQKPGRAPKLLIYTASSLQSGVPSRFSGSGSGTDFTLTISSLQPEDFATYFCQQANSFPFTFGPGTKVDIKR
91

Indicate its recorded Maximal Blocking (%); the binder in question is H4H2094P (antibody, human IgG4, V domains shown, Human IgG4 Fc (prefix H4H)) VH: EVQLVESGGGLVQPGGSLRLSCAASGFTFSSYDMHWVRQATGKGLEWVSAIGPAGDTYYPVSAMGRFTISRDDAKNSLYLQMNSLRAGDTAVYYCAREGVTIRPDDYFGLDVWGQGTTVTVSA VL: DIQLTQSPSFLSASVGDRVTITCWASQGISDYLAWYQKKPGKAPQLLIYAATTLQSGVPSRFSGSGSGTEFTLTISSLQPEDFATYYCQQLNTYPLTFGGGTKVEIKR
92

Return value of Maximal Blocking (%) for input H4H2143P (antibody, human IgG4, V domains shown, Human IgG4 Fc (prefix H4H)) VH: EVQLVESGGGLVQPGRSLRLSCAASGFTFGDYAMHWVRQAPGKGLEWVSGINLNSGTIGYADSVKGRFTISRDNAKNSLYLQMNSLRAEDTAFYYCAKDIDGYYHYAMDVWGQGTTVTVSS VL: DVVMTQSPSFLSASVGDRVTITCWASQGISSYLAWYQQKPGKAPKLLIYDASTLESGVPSRFSGSGSGTEFTLTISNLQPEDFATYYCQQVNSYPLTFGGGTKVEIKR , no commentary.
92

Let me know recorded Maximal Blocking (%) for H4H2148P (antibody, human IgG4, V domains shown, Human IgG4 Fc (prefix H4H)) VH: EVQLVESGGGLVHPGRSLRLSCAASGFTFDDYAMHWVRQSPGKGLEWVSGISWNSVIKHSTDSVRGRFTISRDNAKNSLYLQMNSLKPEDTAFYYCAKDEDDWNYLDYWGQGTLVTVSS VL: DIQMTQSPSSVSASVGDRVTITCRASQDINSWLAWYQQKPGKAPKLLIYTSSNLQSGVPSRFSGSGSGTDFTLTISSLQPEDFATYYCQQSDSFPFTFGPGTKVDIKR , thanks.
100

Identify the reported Maximal Blocking (%) for the following entry. H4H2098P (antibody, human IgG4, V domains shown, Human IgG4 Fc (prefix H4H)) VH: QVQLVESGGGVVQPGRSLRLSCAASGFTFSSFGMHWVRQAPGKGLEWVAVIWYVEINKYHADSVKGRFTISRDDSKNTVYLQMNSLRAEDTAVYYCARDWNDGDYGMDVWGQGTTVTVSS VL: DIQLTQSPSFLSASVGDRVTITCWASQGISSFLAWYQQKAGKAPRLLIYAASTLQTGVPSRFSGSGSGTEFTLTISSLQPGDFATYHCQQLNSYPYTFGQGTKLEIKR
95
